Target: FGFR2 (Homo sapiens)
Construct: purchased Invitrogen PV3368
Sequence (P21802 22-821): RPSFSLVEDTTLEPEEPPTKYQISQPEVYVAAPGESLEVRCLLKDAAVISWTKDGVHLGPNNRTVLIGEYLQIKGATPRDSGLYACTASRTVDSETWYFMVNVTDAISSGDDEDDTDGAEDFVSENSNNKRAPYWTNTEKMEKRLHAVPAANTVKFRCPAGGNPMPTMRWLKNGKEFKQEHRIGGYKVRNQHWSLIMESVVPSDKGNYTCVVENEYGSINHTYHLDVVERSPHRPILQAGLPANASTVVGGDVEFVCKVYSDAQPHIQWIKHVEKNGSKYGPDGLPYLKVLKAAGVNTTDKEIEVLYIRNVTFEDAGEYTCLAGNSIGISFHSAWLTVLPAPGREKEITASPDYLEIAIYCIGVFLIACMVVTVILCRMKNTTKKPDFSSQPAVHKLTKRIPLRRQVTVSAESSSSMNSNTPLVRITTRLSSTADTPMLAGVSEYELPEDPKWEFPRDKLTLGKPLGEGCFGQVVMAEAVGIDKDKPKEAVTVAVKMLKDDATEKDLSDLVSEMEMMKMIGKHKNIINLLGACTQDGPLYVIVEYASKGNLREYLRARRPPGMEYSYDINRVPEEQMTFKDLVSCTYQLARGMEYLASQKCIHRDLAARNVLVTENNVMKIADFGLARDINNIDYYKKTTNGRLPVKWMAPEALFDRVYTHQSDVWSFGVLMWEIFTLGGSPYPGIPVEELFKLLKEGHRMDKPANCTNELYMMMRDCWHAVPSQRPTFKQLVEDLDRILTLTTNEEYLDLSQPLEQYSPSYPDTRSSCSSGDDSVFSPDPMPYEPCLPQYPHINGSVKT
Assay: 33P isotope-labeled kinase activity test (Reaction Biology Corp), wild-type FGFR2
Assay type: biochemical
Conditions: ratio of IC50 FGFR1 to IC50 FGFR2
PARAMETER: Selectivity FGFR1/2

A = COc1cc(OC)cc(-c2nc(-c3nc(-c4cn(CC(O)CC(F)(F)F)nc4C)cnc3N)cn(C)c2=O)c1 (single isomer, unassigned) [compound 0063]
B = COc1cc(OC)cc(-c2nc(-c3nc(-c4cnn(CC(O)CC(F)(F)F)c4C)cnc3N)cn(C)c2=O)c1 (single isomer, unassigned) [compound 0064]
Query block: Which one would you say has the larger Selectivity FGFR1/2 value: A , or B ? Give the label under which the chosen entry appears.
Result block: B
(B: 7.97, A: 4.39)

Ref: patent US11286248B2
